Settings: human, serum
Please mark Fulfilled if the recorded Hepatotoxicity (moderate) is equal to or greater than 1, and Not fulfilled if it falls below.

>  <molecule>
COc1ccc(OC)c(Cc2cnc3nc(N)nc(N)c3c2C)c1 [PIRITREXIM]

>  <cat>
Fulfilled

$$$$
>  <molecule>
CN(Cc1cnc2nc(N)nc(N)c2n1)c1c(Cl)cc(C(=O)N[C@@H](CCC(=O)O)C(=O)O)cc1Cl

>  <cat>
Fulfilled

$$$$
>  <molecule>
C=CCC1(CC(C)C)C(=O)NC(=O)NC1=O [BUTALBITAL]

>  <cat>
Not fulfilled

$$$$
>  <molecule>
CC(C)NNC(=O)c1ccncc1 [IPRONIAZID]

>  <cat>
Fulfilled

$$$$
>  <molecule>
CCC(=O)O[C@](Cc1ccccc1)(c1ccccc1)[C@H](C)CN(C)C [PROPOXYPHENE]

>  <cat>
Fulfilled

$$$$
>  <molecule>
CC1(C)S[C@@H]2[C@H](NC(=O)[C@H](N)c3ccccc3)C(=O)N2[C@H]1C(=O)OCOC(=O)[C@@H]1N2C(=O)C[C@H]2S(=O)(=O)C1(C)C [SULTAMICILLIN]

>  <cat>
Fulfilled

$$$$
>  <molecule>
COC(F)(F)C(Cl)Cl [METHOXYFLURANE]

>  <cat>
Fulfilled

$$$$
>  <molecule>
C1CC1 [CYCLOPROPANE]

>  <cat>
Not fulfilled

$$$$
>  <molecule>
N=C(N)c1ccc(OCCCCCOc2ccc(C(=N)N)cc2)cc1 [PENTAMIDINE]

>  <cat>
Fulfilled

$$$$
>  <molecule>
C[C@]12CC[C@@H]3c4ccc(OC(=O)N(CCCl)CCCl)cc4CC[C@H]3[C@@H]1CC[C@@H]2O [ESTRAMUSTINE]

>  <cat>
Fulfilled

$$$$
>  <molecule>
CCC1=C(C)CN(C(=O)NCCc2ccc(S(=O)(=O)NC(=O)N[C@H]3CC[C@H](C)CC3)cc2)C1=O [GLIMEPIRIDE]

>  <cat>
Not fulfilled

$$$$
>  <molecule>
CC1(C)S[C@@H]2[C@H](NC(=O)[C@H](N)c3ccc(O)cc3)C(=O)N2[C@H]1C(=O)O.O=C(O)[C@H]1/C(=C/CO)O[C@@H]2CC(=O)N21

>  <cat>
Fulfilled

$$$$
>  <molecule>
CC(=O)O[C@]1(C(C)=O)CC[C@H]2[C@@H]3C=C(C)C4=CC(=O)CC[C@]4(C)[C@H]3CC[C@@]21C [MEGESTROL ACETATE]

>  <cat>
Fulfilled

$$$$
>  <molecule>
Nc1nc2ccc(OC(F)(F)F)cc2s1 [RILUZOLE]

>  <cat>
Fulfilled

$$$$
>  <molecule>
CCCCCCCCCCCCCCCCOP(=O)([O-])OCC[N+](C)(C)C [MILTEFOSINE]

>  <cat>
Fulfilled

$$$$
>  <molecule>
CCN(CCCc1ccccc1)CCCc1ccccc1 [ALVERINE]

>  <cat>
Not fulfilled

$$$$
>  <molecule>
C[C@@H](O)[C@H]1C(=O)N2C(C(=O)O)=C([C@H]3CCCO3)S[C@H]12 [FAROPENEM]

>  <cat>
Fulfilled

$$$$
>  <molecule>
[H]/N=C(/N)N/C(=N/[H])NCCc1ccccc1 [PHENFORMIN]

>  <cat>
Not fulfilled

$$$$
>  <molecule>
O=C1CCC(N2C(=O)c3ccccc3C2=O)C(=O)N1 (centres undefined) [THALIDOMIDE]

>  <cat>
Fulfilled

$$$$
>  <molecule>
O=C1CC[C@@]2(O)[C@H]3Cc4ccc(O)c5c4[C@@]2(CCN3CC2CC2)[C@H]1O5 [NALTREXONE]

>  <cat>
Fulfilled

$$$$
>  <molecule>
CC1CCc2cc(F)cc3c(=O)c(C(=O)O)cn1c23 (centres undefined) [FLUMEQUINE]

>  <cat>
Not fulfilled

$$$$
>  <molecule>
Cc1[nH]c(=O)c(C#N)cc1-c1ccncc1 [MILRINONE]

>  <cat>
Fulfilled

$$$$

====

Conditions: human
readout: Hepatotoxicity (cytolytic)

>  <compound>
NCCS

>  <val>
1

$$$$
>  <compound>
CC(C)(CNC(N)=O)NCC(O)COC(=O)c1ccccc1F (centres undefined)

>  <val>
0

$$$$
>  <compound>
COC1=CC(=O)C[C@@H](C)[C@]12Oc1c(Cl)c(OC)cc(OC)c1C2=O

>  <val>
1

$$$$
>  <compound>
COc1cc([C@@H]2c3cc4c(cc3[C@@H](O[C@@H]3O[C@@H]5CO[C@@H](c6cccs6)O[C@H]5[C@H](O)[C@H]3O)[C@H]3COC(=O)[C@H]23)OCO4)cc(OC)c1O [TENIPOSIDE]

>  <val>
0

$$$$
>  <compound>
O=C(O)COc1ccc(C(=O)c2cccs2)c(Cl)c1Cl

>  <val>
18

$$$$
>  <compound>
CCc1oc2ccccc2c1C(=O)c1cc(I)c(O)c(I)c1

>  <val>
0

$$$$
>  <compound>
Cc1cn([C@H]2C[C@H](N=[N+]=[N-])[C@@H](CO)O2)c(=O)[nH]c1=O

>  <val>
22

$$$$
>  <compound>
Nc1nc(/C(=C/CC(=O)O)C(=O)N[C@@H]2C(=O)N3C(C(=O)O)=CCS[C@H]23)cs1

>  <val>
0

$$$$
>  <compound>
NCC1(CC(=O)O)CCCCC1

>  <val>
1

$$$$
>  <compound>
COC(=O)Nc1nc2ccc(C(=O)c3ccccc3)cc2[nH]1

>  <val>
3

$$$$
>  <compound>
CCCC(=O)Nc1ccc(OCC(O)CNC(C)C)c(C(C)=O)c1 (centres undefined)

>  <val>
1

$$$$
>  <compound>
O=c1[nH]c(=O)n(C2CCCO2)cc1F (centres undefined)

>  <val>
1

$$$$
>  <compound>
CN1c2ccccc2C(NCCCCCCC(=O)O)c2ccc(Cl)cc2S1(=O)=O (centres undefined)

>  <val>
3

$$$$
>  <compound>
CN1CCN(c2c(F)cc3c(=O)c(C(=O)O)cn(CCF)c3c2F)CC1

>  <val>
0

$$$$
>  <compound>
NCCCC(N)(C(=O)O)C(F)F (centres undefined)

>  <val>
0

$$$$
>  <compound>
CN1CC[C@@H]2Nc3ccccc3[C@@H]2C1.Cl.Cl

>  <val>
0

$$$$
>  <compound>
CCNC1=Nc2ccc(Cl)cc2C(C)(c2ccccc2)O1 (centres undefined)

>  <val>
1

$$$$
>  <compound>
C=C(OC)C(=O)Nc1cc(OC)c(OC)cc1C(=O)O[C@H]1C[C@H](O[C@@H]2C(=O)C(NC(=O)OC)=C3/C(=C\CSSSC)[C@]2(O)C#C/C=C\C#C[C@@H]3O[C@@H]2O[C@H](C)[C@@H](NO[C@H]3C[C@H](O)[C@H](SC)[C@@H](C)O3)[C@H](O)[C@H]2O[C@H]2C[C@H](OC)[C@@H](NC(C)C)CO2)O[C@@H](C)[C@H]1O

>  <val>
0

$$$$
>  <compound>
Nc1nc(=O)[nH]cc1F

>  <val>
3

$$$$

====

Conditions: human, serum
Please mark 1 (yes) if the recorded Hepatotoxicity (acute) is equal to or greater than 1, and 0 (no) if it falls below.

>  <compound>
C#CC(O)(/C=C/Cl)CC (stereo not given) [ETHCHLORVYNOL]

>  <cat>
1 (yes)

$$$$
>  <compound>
C[C@]12CC[C@H]3[C@@H](CCC4=CC(=O)CC[C@@]43C)[C@@H]1CC[C@@H]2O [TESTOSTERONE]

>  <cat>
1 (yes)

$$$$
>  <compound>
O=C(N[C@H](CO)[C@H](O)c1ccc([N+](=O)[O-])cc1)C(Cl)Cl [CHLORAMPHENICOL]

>  <cat>
1 (yes)

$$$$
>  <compound>
CCN(CC)CCOC(=O)[C@@H](Cc1cccc2ccccc12)C[C@@H]1CCCO1 [NAFTIDROFURYL]

>  <cat>
1 (yes)

$$$$
>  <compound>
[Se]

>  <cat>
0 (no)

$$$$
>  <compound>
C[C@@H]1C[C@H](C)CN(S(=O)(=O)c2ccc(Cl)c(C(=O)O)c2)C1 [TIBRIC ACID]

>  <cat>
0 (no)

$$$$
>  <compound>
CCN1C(=O)NC(c2ccccc2)C1=O (stereo not given) [ETHOTOIN]

>  <cat>
0 (no)

$$$$
>  <compound>
C[C@]12Cc3c[nH]nc3C[C@@H]1CC[C@@H]1[C@@H]2CC[C@@]2(C)[C@H]1CC[C@]2(C)O [STANOZOLOL]

>  <cat>
1 (yes)

$$$$
>  <compound>
CCCSc1ccc2nc(NC(=O)OC)[nH]c2c1 [ALBENDAZOLE]

>  <cat>
1 (yes)

$$$$

====

Test: Comments (NB not yet translated). [column 'COMMENTAIRES' in source]
Settings: human

>  <compound>
CC/C(=C(/CC)c1ccc(OP(=O)(O)O)cc1)c1ccc(OP(=O)(O)O)cc1 [DIETHYLSTILBESTROL DIPHOSPHATE]

>  <Hepatotoxicity (comment)>
NASH

$$$$
